Biological target: T1, human insulin receptor isoform A with C-terminal C9 tag (human, UniProt P06213 28-1382)
T1 construct: membranes of stably transfected HEK293 cells; also called hIR-A; human IR-A
Assay: 125I-insulin competition SPA, hIR-A membranes, 0.001% NP-40
Measured Property: pKi
Hey, just a heads up that pKi is the negative log base 10 of the concentration in molar.

The value of pKi measured for the binder INS Analog 30 (other, single-chain insulin B-L2-A-L1-VHH fusion; also called Ex. 30) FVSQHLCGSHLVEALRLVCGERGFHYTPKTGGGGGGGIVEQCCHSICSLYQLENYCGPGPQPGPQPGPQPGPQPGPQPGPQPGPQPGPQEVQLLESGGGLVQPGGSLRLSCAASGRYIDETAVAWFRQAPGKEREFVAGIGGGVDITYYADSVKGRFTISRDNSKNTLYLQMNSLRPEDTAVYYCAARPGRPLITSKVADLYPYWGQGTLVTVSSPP turned out to be 7.31

Data point: INS Analog 29 (other, single-chain insulin B-L2-A-L1-VHH fusion; also called Ex. 29) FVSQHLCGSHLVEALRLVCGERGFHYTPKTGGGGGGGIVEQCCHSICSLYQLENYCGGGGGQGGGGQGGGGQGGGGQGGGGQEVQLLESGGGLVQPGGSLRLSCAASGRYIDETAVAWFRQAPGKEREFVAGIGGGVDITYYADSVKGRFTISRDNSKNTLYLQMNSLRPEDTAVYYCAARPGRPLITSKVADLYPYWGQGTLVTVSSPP ; pKi = 7.47

Looking up INS Analog 20 (other, single-chain insulin B-L2-A-L1-VHH fusion; also called Ex. 20) FVSQHLCGSHLVEALYLVCGERGFFYTPKTGGGGGGGIVEQCCTSICSLYQLENYCGPGPQPGPQPGPQPGPQPGPQPGPQPGPQPGPQEVQLLESGGGLVQPGGSLRLSCAASGRYIDETAVAWFRQAPGKEREFVAGIGGGVDITYYADSVKGRFTISRDNSKNTLYLQMNSLRPEDTAVYYCAARPGRPLITSKVADLYPYWGQGTLVTVSSPP , I see its pKi listed as 7.73

// field: pKi; key: INS Analog 13 (other, single-chain insulin B-L2-A-L1-VHH fusion; also called Ex. 13) FVSQHLCGSHLVEALHLVCGERGFHYTPKTGGGGGGGIVEQCCHSICSLEQLENYCGPGPAPGPAPGPAPGPAPGPAPGPAPGPAPGPAEVQLLESGGGLVQPGGSLRLSCAASGRYIDETAVAWFRQAPGKEREFVAGIGGGVDITYYADSVKGRFTISRDNSKNTLYLQMNSLRPEDTAVYYCAARPGRPLITSKVADLYPYWGQGTLVTVSSPP ; value = 7.64
